# Test system: E57 (patient-derived glioblastoma stem cells of mesenchymal subtype)
# assay: surviving fraction (nuclei count normalised to DMSO); higher = more cells surviving (less toxic)
# setup conditions: 333.333 nM; exposure time: 72 h
Give measured surviving fraction for each item. Keep answers brief.
Just the number.

Form field: surviving fraction recorded for Nc1ncn([C@@H]2O[C@H](CO)[C@@H](O)[C@H]2O)c(=O)n1 [5-azacytidine] with E57 (enter value)
0.78

// next record COC(=O)Nc1nc2cc(C(=O)c3cccs3)ccc2[nH]1 [Nocodazole]
0.0805

// next record C[C@@H](O)[C@H]1C(=O)N2C(C(=O)O)=C(S[C@@H]3CN[C@H](C(=O)N(C)C)C3)[C@H](C)[C@H]12 [Meropenem]
1.01

// next record OCCN1C[C@H](O)[C@@H](O)[C@H](O)[C@H]1CO [Miglitol]
0.955

---

# System: E57
# assay: phenotypic distance (Euclidean, principal components) from DMSO controls (arbitrary units); higher = stronger morphological change
# setup conditions: 111.1 nM; exposure time: 72 h
Where a name gives a salt, the structure may show the parent alone.
Our labelling divides records by phenotypic distance into ranges: b0 (below 0.6), b1 (0.6 to below 1), b2 (1 or more)

Band assignment needed for Cn1ncnc1[C@H]1c2n[nH]c(=O)c3cc(F)cc(c23)N[C@@H]1c1ccc(F)cc1 please.
b2

// next record NCc1ccccc1CC(=O)N[C@@H]1C(=O)N2C(C(=O)O)=C(CSc3nnnn3CC(=O)O)CS[C@H]12 [Ceforanide]
b0

// next record Nc1ncnc2c1c(-c1ccc(Oc3ccccc3)cc1)cn2C1CCCC1
b2

// next record CC[n+]1c(/C=C/C=C2/N(C)c3ccccc3C2(C)C)sc2ccccc21
b2

// next record CCOC(=O)C1=C(C)NC(C)=C(C(=O)OCC)C1c1c(F)c(F)c(F)c(F)c1F
b0

// next record Cc1cc(Nc2cc(CN3CCOCC3)c3nc(C)c(Cc4ccc(Cl)cc4F)n3n2)n[nH]1
b2

// next record Clc1ccc(CSC(Cn2ccnc2)c2ccc(Cl)cc2Cl)cc1 (stereo not drawn) [Sulconazole nitrate]
b0

// next record CCCCCCCCCCCCCC(=O)O[C@@H]1[C@@H](C)[C@@]2(O)[C@@H](C=C(CO)C[C@]3(O)C(=O)C(C)=C[C@@H]23)[C@@H]2C(C)(C)[C@]12OC(C)=O [Phorbol 12-myristate 13-acetate]
b2

// next record CNCCc1ccccn1 [Betahistine mesylate]
b2

// next record N=C(N)NCc1cccc(I)c1 [Iobenguane sulfate]
b1

// next record O=C(CCBr)N1CCN(C(=O)CCBr)CC1
b0

// next record COc1cc([C@@H]2c3cc4c(cc3[C@H](O)[C@H]3COC(=O)[C@H]23)OCO4)cc(OC)c1OC
b2

// next record CN(C(=O)CN(CCO)CC(=O)N(C)C(C)(C)Cc1ccccc1)C(C)(C)Cc1ccccc1
b1

// next record Cc1ccc(S(=O)(=O)/C=C/C#N)cc1
b1

// next record CC(NCCC(c1ccccc1)c1ccccc1)c1ccccc1 (stereo not drawn) [Fendiline hydrochloride]
b1

// next record Cc1ncc(CO)c(CO)c1O [Pyridoxine hydrochloride]
b0

// next record COc1ccc(C(=O)CC(=O)c2ccc(C(C)(C)C)cc2)cc1
b0

// next record C#C[C@]1(O)CC[C@H]2[C@@H]3CCC4=CCCC[C@@H]4[C@H]3CC[C@@]21C
b1

// next record CSc1ccc2c(c1)N(CCC1CCCCN1C)c1ccccc1S2 (stereo not drawn) [Thioridazine hydrochloride]
b1

// next record CCC(C)n1ncn(-c2ccc(N3CCN(c4ccc(OCC5COC(Cn6cncn6)(c6ccc(Cl)cc6Cl)O5)cc4)CC3)cc2)c1=O (stereo not drawn)
b1

// next record O=C(C1CC1)N1CC[C@@H](Cc2n[nH]c(=O)n2-c2ccc(-c3ccc4occc4c3)cc2)C1
b2

// next record CC1(C(=O)O)C2CCC(O2)C1(C)C(=O)O (stereo not drawn)
b0

// next record Nc1ccn([C@H]2CC[C@@H](CO)O2)c(=O)n1
b1

// next record N=C(NCCCCCCNC(=N)NC(=N)Nc1ccc(Cl)cc1)NC(=N)Nc1ccc(Cl)cc1
b1

// next record CC1CNc2c(cccc2S(=O)(=O)N[C@@H](CCCNC(=N)N)C(=O)N2CC[C@@H](C)C[C@@H]2C(=O)O)C1 (stereo partly drawn)
b0

// next record NC(=O)c1ccccc1 [Benzamide]
b0

// next record C#C[C@]1(O)CC[C@H]2[C@@H]3CCc4cc(OC5CCCC5)ccc4[C@H]3CC[C@@]21C
b1

// next record Nc1nc(=O)c2nc(CNc3ccc(C(=O)N[C@@H](CCC(=O)O)C(=O)O)cc3)cnc2[nH]1
b1

// next record CC(C)NCC(O)c1ccc(O)c(O)c1 (stereo not drawn) [Isoproterenol hydrochloride]
b2

// next record CC(C)C[C@H](NC(=O)CNC(=O)c1cc(Cl)ccc1Cl)B(O)O
b2

// next record CN[C@@H]1[C@@H](O)[C@@H](O[C@@H]2[C@@H](O)[C@H](O[C@H]3OC(CN)=CC[C@H]3N)[C@@H](N)C[C@H]2N)OC[C@]1(C)O [Sisomicin sulfate]
b0

FYI, the data here is from the supplement of paper PMC13207355.
